assay: chemical genetic growth profiling, strain panel (AID 1159580);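 note: tested at 20 µM; growth read once vehicle control cultures reached saturation at 30 °C; 1 = growth at the plate median or of vehicle wells; lower values mean less growth of the strain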; details: S. cerevisiae deletion strains, growth OD, locus YOL147C, strain pex11
In all, about 5,500 compounds went through this assay and about 2,000 (36%) were called active. Another 18% or so got no clear call; they are omitted. Cut-off read from the data, not from the text of the source: active = normalized growth mostly below about 0.91 (no sharp cut-off); inconclusive = no clear call, values can overlap the other calls; inactive = mostly above about 0.92. The list shows a part of the results.
Possible outcomes: 1 (active), 0 (inactive)

{"COMPOUND": "COc1cc(O)c2c(c1)C(=O)c1cc(C)cc(O)c1C2=O", "DISCRETE_LABEL": 0}
{"COMPOUND": "O=C1NS(=O)(=O)c2ccccc21", "DISCRETE_LABEL": 0}
{"COMPOUND": "O=C(O)CCC(=O)OC[C@@H](NC(=O)C(Cl)Cl)[C@H](O)c1ccc([N+](=O)[O-])cc1", "DISCRETE_LABEL": 0}
{"COMPOUND": "C[C@]12[C@H](O)CC3C(CC[C@@H]4C[C@@H](O)CC[C@]34C)[C@@]1(O)CC[C@@H]2C1=CC(=O)OC1 (stereo partly specified)", "DISCRETE_LABEL": 0}
{"COMPOUND": "Cc1cc(O)c2c(c1)C(=O)c1cc(O)cc(O)c1C2=O", "DISCRETE_LABEL": 1}
{"COMPOUND": "C[C@]12CC[C@@H](O)C[C@H]1CCc1ccccc12", "DISCRETE_LABEL": 0}
{"COMPOUND": "COC(=O)CC1C(C)(C)C(=O)C2CC3(O)C4=CC(=O)OC(c5ccoc5)C4(C)CCC3C1(C)C2=O (stereo unspecified)", "DISCRETE_LABEL": 0}
{"COMPOUND": "CN1CCC[C@H]1c1cccnc1", "DISCRETE_LABEL": 0}
{"COMPOUND": "CC(C)N1C(=O)c2ccccc2NS1(=O)=O", "DISCRETE_LABEL": 0}
{"COMPOUND": "O=C(N[C@@H](CO)[C@H](O)c1ccc([N+](=O)[O-])cc1)C(Cl)Cl", "DISCRETE_LABEL": 0}
{"COMPOUND": "O=C(c1ccccc1)c1ccc2n1CCC2C(=O)O (stereo unspecified)", "DISCRETE_LABEL": 0}

----------
Consider the following compounds and their measured normalized growth readings.
assay: chemical genetic growth profiling, strain panel (AID 1159580);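 note: tested at 20 µM; growth read once vehicle control cultures reached saturation at 30 °C; 1 = growth at the plate median or of vehicle wells; lower values mean less growth of the strain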; conditions: S. cerevisiae deletion strains, growth OD, locus YKL085W, strain MDH1 (second series), active compounds read low
The whole screen tested about 5,500 compounds, of which about 2,000 (36%) were called active. Another 18% or so got no clear call; they are omitted. Some of the results follow.

{"COMPOUND": "O=C1C(=O)c2ccccc2C(O)=C1C1CCC(c2ccc(Cl)cc2)CC1 (centres undefined)", "normalized growth": 0.989}
{"COMPOUND": "CNC(C)[C@@H]1CC[C@@H](N)[C@@H](OC2[C@@H](N)C[C@@H](N)[C@H](OC3OC[C@](C)(O)[C@H](NC)[C@H]3O)[C@H]2O)O1 (some centres undefined)", "normalized growth": 1.02}
{"COMPOUND": "COc1ccc(NS(=O)(=O)c2ccc(N)cc2)nn1", "normalized growth": 0.999}
{"COMPOUND": "COc1cc([C@@H]2c3cc4c(cc3[C@H](O)[C@H]3COC(=O)[C@H]23)OCO4)cc(OC)c1OC", "normalized growth": 1.01}
{"COMPOUND": "C[C@H]1C(=O)CCC2[C@]3(C)CC[C@@]4(C)C5CC(C)(C)CC[C@]5(C)CC[C@]4(C)C3CC[C@@]21C (some centres undefined)", "normalized growth": 1.01}
{"COMPOUND": "CN1CCC[C@H]1c1cccnc1", "normalized growth": 0.984}
{"COMPOUND": "COC1=CC23CCCN2CCc2cc4c(cc2C3C1O)OCO4 (centres undefined)", "normalized growth": 1.01}
{"COMPOUND": "COc1cc(OC)c2c(OC)c(-c3ccc4c(c3)OCO4)c(=O)oc2c1", "normalized growth": 0.99}
{"COMPOUND": "COc1ccc(-c2c(OC)c3c(OC)c4c(cc3oc2=O)OC(C)(C)C=C4)cc1", "normalized growth": 1.04}
